Cited source for all entries: ChEMBL document CHEMBL1201862

# Test system: SK-MEL-5
# Protocol: NCI tumour cell line growth inhibition, 48 h
The source made the active and inactive calls. No stated cut-off is given here; in the data, active = GI50 up to about 1.1 µM and inactive = higher.
Give GI50 for every item shown.

# lookup: GI50 of `CNC(=S)N(C1CCCCC1)C1CCCCC1`
49 µM (inactive)

# lookup: GI50 of CCOC(=O)C(CS)NC(=O)CCCCCCCC(=O)NC(CS)C(=O)OCC (centres undefined)
> 100 µM (inactive)

# lookup: GI50 of `CC(C)/C(Cl)=N\OC(=O)Nc1ccc(F)cc1F`
14.3 µM (inactive)

# lookup: GI50 of `CCC/N=C1\S/C(=C/c2ccc(OC)c(OC)c2)C(=O)N1c1ccccc1`
37.6 µM (inactive)

# lookup: GI50 of CC1OC(O[C@H]2C3C=CO[C@@H](OC4OC(CO)C(O)C(O)C4O)C3[C@@]3(COC(=O)/C=C/c4ccccc4)O[C@@H]23)C(O)C(O)C1O (some centres undefined)
> 100 µM (inactive)

# lookup: GI50 of `CN(C)c1ccc(/C=C2\Oc3cc(O)ccc3C2=O)cc1`
80.7 µM (inactive)

# lookup: GI50 of CC1OC(OC2C(O)COC(OC3C(C)OC(OC4C(OC(=O)[C@]56CCC(C)(C)C[C@@H]5C5=CCC7[C@@]8(C)C[C@H](O)[C@H](OC9OC(CO)C(O)C(OC%10OC(CO)C(O)C(O)C%10O)C9O)[C@@](C)(CO)[C@@H]8CC[C@@]7(C)[C@]5(C)CC6)OCC(O)C4O)C(O)C3OC3OCC(O)C(O)C3O)C2O)C(O)C(O)C1O (some centres undefined)
4.45 µM (inactive)

# lookup: GI50 of COC(=O)C1=CSC2(S1)C(C(=O)OC)=CSc1c2ssc1=O (centres undefined)
2.24 µM (inactive)

# lookup: GI50 of CC(=O)C12C[C@](C#N)(N3CCCCCC3)C1C=Cc1ccccc12 (some centres undefined)
> 100 µM (inactive)
